Let's go through some pIC50 measurements on PDE1A (Homo sapiens, UniProt P54750) together.
Sequence (P54750 whole entry): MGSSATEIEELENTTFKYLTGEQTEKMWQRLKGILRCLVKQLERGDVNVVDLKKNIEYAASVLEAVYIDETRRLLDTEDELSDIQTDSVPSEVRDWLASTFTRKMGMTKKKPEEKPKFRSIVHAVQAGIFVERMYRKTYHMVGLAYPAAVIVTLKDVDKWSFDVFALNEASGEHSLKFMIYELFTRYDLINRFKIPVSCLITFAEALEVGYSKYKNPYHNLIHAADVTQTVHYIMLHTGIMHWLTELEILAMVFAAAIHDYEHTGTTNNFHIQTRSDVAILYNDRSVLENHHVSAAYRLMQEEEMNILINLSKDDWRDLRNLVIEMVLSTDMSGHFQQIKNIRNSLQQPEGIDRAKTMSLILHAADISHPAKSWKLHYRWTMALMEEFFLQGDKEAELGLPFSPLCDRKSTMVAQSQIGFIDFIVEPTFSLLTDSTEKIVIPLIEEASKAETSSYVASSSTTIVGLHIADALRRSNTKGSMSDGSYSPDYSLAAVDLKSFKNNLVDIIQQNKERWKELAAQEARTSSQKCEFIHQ
Give only the number. pIC50 is defined as minus log10 of concentration in molar units.

O=c1c(O)c(-c2ccc(O)c(O)c2)oc2cc(O)cc(O)c12 = 5.40
COCc1nc2c([nH]1)c(=O)n(C)c(=O)n2CC(C)C = 4.92

Turning to the following compound.
Q: Endpoint output: pIC50 of O=C(O[C@H]1[C@H](Oc2c(-c3ccc(O)c(O)c3)oc3cc(O)cc(O)c3c2=O)O[C@H](CO)[C@H](O)[C@@H]1O)c1cc(O)c(O)c(O)c1 [2″-O-galloylhyperoside] . Value?
Result: 5.52
